- measured.on: Progesterone receptor (Homo sapiens) (UniProt P06401)
- Sequence (P06401 whole entry, looked up): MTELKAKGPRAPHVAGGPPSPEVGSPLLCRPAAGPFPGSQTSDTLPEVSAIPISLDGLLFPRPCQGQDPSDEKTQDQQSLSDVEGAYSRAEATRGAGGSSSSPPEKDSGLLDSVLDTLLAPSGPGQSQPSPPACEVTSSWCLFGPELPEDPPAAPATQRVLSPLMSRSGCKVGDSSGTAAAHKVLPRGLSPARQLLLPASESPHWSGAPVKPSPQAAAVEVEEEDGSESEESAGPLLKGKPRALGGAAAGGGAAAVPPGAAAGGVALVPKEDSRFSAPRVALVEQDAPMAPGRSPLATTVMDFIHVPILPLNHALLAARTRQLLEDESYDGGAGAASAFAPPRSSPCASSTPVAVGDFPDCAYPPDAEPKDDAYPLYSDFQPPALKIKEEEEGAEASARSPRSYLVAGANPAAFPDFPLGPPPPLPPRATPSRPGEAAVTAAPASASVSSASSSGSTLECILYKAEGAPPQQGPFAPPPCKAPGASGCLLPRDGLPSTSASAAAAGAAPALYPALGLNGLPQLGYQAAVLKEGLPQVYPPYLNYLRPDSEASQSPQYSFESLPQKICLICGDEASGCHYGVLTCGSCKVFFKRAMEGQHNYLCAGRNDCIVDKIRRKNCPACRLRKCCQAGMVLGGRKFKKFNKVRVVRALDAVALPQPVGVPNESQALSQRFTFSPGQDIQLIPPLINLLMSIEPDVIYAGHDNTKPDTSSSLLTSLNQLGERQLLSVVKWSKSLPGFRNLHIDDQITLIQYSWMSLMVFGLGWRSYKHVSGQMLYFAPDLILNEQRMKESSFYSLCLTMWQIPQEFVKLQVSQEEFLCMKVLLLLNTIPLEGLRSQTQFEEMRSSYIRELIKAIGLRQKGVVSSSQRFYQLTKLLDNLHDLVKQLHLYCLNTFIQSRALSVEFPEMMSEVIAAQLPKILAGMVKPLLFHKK
- experiment.description: qHTS assay to identify small molecule agonists of the progesterone receptor (PR) signaling pathway (AID 1346784); also: nearly all actives have a fitted effect of over 30% in size
- cond: PR-UAS-bla HEK293T, beta-lactamase FRET ratio, 16 h; series mostly up to 92.4 µM
Records with an inconclusive call do not appear. Active and inactive are the calls of the source. Calls follow the shape of the full dose curve.
Select the correct class. Options are active, inactive and nothing else.

Example entries and their recorded answers appear below.
Cc1ccc(CCl)cc1; inactive
CCOP(=S)(OCC)SCCS(=O)(=O)CC; inactive
C[C@@H]1O[C@@H](O[C@H]2C[C@@H](O)[C@]3(CO)[C@H]4[C@H](O)C[C@]5(C)[C@@H](C6=CC(=O)OC6)CC[C@]5(O)[C@@H]4CC[C@]3(O)C2)[C@H](O)[C@H](O)[C@H]1O; inactive
Cc1ccc(OP(=O)(Oc2ccccc2)Oc2ccccc2)cc1; inactive

Dear colleague, could you share the recorded outcome for CC(C)OS(C)(=O)=O when you have a moment?
inactive

COc1ccc(/C(=C/C(=O)N2CCOCC2)c2ccc(Cl)cc2)cc1OC ?
inactive

NNC(=O)c1ccccc1 ?
inactive

N#Cc1ccccc1Cl ?
inactive

NC(=O)c1ccc(N)nc1 ?
inactive
